Molecular target: hM5 (Homo sapiens, UniProt P08912)
Construct: expressed in transfected cells
Sequence (P08912 1-532): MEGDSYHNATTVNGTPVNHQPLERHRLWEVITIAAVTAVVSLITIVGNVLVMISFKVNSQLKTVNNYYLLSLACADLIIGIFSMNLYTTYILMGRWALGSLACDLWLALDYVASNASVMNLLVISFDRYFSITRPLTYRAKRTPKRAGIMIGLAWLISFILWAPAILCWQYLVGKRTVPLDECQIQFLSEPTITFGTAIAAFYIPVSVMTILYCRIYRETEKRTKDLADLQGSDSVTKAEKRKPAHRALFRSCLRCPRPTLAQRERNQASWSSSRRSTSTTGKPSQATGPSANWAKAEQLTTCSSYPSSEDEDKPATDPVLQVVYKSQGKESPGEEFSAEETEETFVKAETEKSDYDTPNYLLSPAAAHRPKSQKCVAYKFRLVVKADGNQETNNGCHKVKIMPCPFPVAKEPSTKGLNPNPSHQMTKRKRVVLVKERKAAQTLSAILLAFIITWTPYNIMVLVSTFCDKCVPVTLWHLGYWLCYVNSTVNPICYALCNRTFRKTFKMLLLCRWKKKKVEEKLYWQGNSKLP
Assay: Calcium mobilization concentration-response (IC50 vs EC80 acetylcholine), CHO hM5
Type: cell-based
Settings: CELL LINE hM5; vs EC80 acetylcholine; read-out: IC50
TEST READOUT: IC50 (nM)

Worked cases, answers included:
{"columns": ["COMPOUND", "TEST READOUT", "RESULT NUMBER"],
 "data": [
  ["O=S(=O)(c1cnc2sccn12)N1CCC(c2cn3ncnc3cc2C(F)(F)F)CC1", "IC50", 68],
  ["Cc1cc2ncnn2nc1C1CCN(S(=O)(=O)c2cnc(Cl)s2)CC1", "IC50", 9510],
  ["Cc1cc2ccnn2cc1C1CCN(S(=O)(=O)c2cnn(C)c2C)CC1", "IC50", 216],
  ["Cc1cc2nccn2cc1C1CCN(S(=O)(=O)c2cnn(C)c2Cl)CC1", "IC50", 25],
  ["COc1nn(C)c(I)c1S(=O)(=O)N1CCC(c2cn3ncnc3cc2Cl)CC1 (single isomer, unassigned)", "IC50", 37]
]}

[a] Cn1ncc(S(=O)(=O)N2CCC(c3cn4ncnc4cc3C(F)(F)F)CC2)c1C#N
[b] COc1c(S(=O)(=O)N2CCC(c3cn4ncnc4c(F)c3C)CC2)cnn1C
stdin: Lab note: record which item had the higher IC50, a or b . State the label of the item chosen.
stdout: a
(a: 59 nM, b: 19 nM)

----------
Target: hM5 (Homo sapiens)
Construct: expressed in transfected cells
Sequence (P08912 1-532): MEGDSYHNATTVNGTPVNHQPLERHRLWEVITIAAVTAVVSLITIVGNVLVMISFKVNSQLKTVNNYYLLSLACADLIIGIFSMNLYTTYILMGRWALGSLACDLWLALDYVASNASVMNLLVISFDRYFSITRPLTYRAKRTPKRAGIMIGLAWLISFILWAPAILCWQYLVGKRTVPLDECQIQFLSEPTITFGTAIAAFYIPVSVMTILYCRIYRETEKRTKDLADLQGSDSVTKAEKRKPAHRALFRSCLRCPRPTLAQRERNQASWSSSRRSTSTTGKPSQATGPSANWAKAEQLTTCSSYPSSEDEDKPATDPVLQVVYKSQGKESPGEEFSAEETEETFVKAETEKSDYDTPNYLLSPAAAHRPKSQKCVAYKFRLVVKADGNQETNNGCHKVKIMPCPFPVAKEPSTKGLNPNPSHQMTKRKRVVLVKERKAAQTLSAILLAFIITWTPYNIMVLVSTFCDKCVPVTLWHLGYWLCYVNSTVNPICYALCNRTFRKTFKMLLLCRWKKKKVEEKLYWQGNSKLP
Experiment: Calcium mobilization concentration-response (IC50 vs EC80 acetylcholine), CHO hM5
Format: cell-based
Settings: CELL LINE hM5; calcium mobilization, EC80 acetylcholine addition; read-out: IC50
pIC50: −log10 of the molar value.
TEST READOUT: pIC50

Before answering, review these 2 worked examples.
{"columns": ["MOL", "pIC50"],
 "data": [
  ["Cc1cc2ncnn2cc1C1CCN(S(=O)(=O)c2cnc3c(c2)CCO3)CC1", 5.85],
  ["O=S(=O)(c1ccc2c(c1)CCO2)N1CCC(c2cc3cc[nH]c3nn2)CC1", 5.66]
]}

[a] [2H]C([2H])([2H])n1cc(S(=O)(=O)N2CCC(c3cn4ncnc4cc3F)CC2)c(Cl)n1
[b] Cc1cc(S(=O)(=O)N2CCC(c3nn4ccnc4cc3C)CC2)c(C)s1
[c] Cn1ncc(S(=O)(=O)N2CCC(c3cc(F)c4ncnn4c3)CC2)c1Cl
[d] Cc1ccncc1C1CCN(S(=O)(=O)c2cnn(C)c2Cl)CC1
stdin: Could you please order the items by pIC50, going from the lowest number to the highest? Provide your answer as the labels ordered per the instruction.
stdout: b, a, d, c
(b: 5.31, a: 5.52, d: 5.78, c: 6.07)
